Assay: pharmacokinetic test in Sprague-Dawley rats
Format: in vivo
Conditions: male, plasma, po, p.o. 40 mg/kg, rat, mean ± SEM, n = 5
measuredParameter: AUC(0-t) (ng·h/mL)

{"columns": ["lineNotation", "reported"],
 "data": [
  ["CCc1cc(-c2nc(C)c(COCc3ccc(Br)cc3)s2)ccn1", 2280]
]}

* * *

Test: pharmacokinetic test in Sprague-Dawley rats
Assay type: in vivo
Details: male, plasma, iv, i.v. 40 mg/kg, rat, mean ± SEM, n = 5
Method: Adult male Sprague-Dawley rats fasted for 12 h were randomized into two groups (n = 5) for intravenous injection (i.v.) or oral administration (p.o.). […] The concentration of WB403 in plasma was determined by an Aligent Technologies 1260 series HPLC system with a DAD detector. The oral bioavailability (F%) was calculated as F (%) = AUC0-∞(p.o.) / AUC0-∞(i.v.) × Dose (i.v.) / Dose (p.o.).

{"columns": ["molecule", "AUC(0-t)"],
 "data": [
  ["CCc1cc(-c2nc(C)c(COCc3ccc(Br)cc3)s2)ccn1 [WB403]", "25000 ng·h/mL"]
]}
